Molecular target: Sodium-dependent noradrenaline transporter (Homo sapiens)
Sequence (P23975 whole entry): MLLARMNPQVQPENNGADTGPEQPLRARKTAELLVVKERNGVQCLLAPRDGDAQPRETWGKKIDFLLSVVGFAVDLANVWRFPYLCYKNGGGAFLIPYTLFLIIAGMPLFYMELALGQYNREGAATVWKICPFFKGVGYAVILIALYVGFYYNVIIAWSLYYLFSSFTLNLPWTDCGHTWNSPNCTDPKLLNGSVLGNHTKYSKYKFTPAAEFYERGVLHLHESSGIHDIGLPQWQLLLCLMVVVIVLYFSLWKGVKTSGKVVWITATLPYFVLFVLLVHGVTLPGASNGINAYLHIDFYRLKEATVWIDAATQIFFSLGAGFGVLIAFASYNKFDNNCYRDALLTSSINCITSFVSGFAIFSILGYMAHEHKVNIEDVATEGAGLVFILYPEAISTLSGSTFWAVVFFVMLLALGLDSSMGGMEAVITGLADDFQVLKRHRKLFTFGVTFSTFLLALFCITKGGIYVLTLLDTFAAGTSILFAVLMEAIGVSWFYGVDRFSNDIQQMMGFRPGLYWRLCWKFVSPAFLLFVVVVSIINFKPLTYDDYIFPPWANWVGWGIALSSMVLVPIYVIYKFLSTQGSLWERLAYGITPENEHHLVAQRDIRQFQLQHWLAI
Assay: Inhibition of NET (unknown origin) at 10 uM relative to control
The source made the active and inactive calls. The calls are words filed in the database; no cut-off is given here.
PROPERTY: inhibition

CC(=O)Nc1ccc2c(c1)[C@]13CCCC[C@@H]1[C@H](C2)N(C)CC3 :: inactive
CNC(=O)c1ccc2c(c1)[C@]13CCCC[C@@H]1[C@H](C2)N(C)CC3 :: 12%
COc1ccc2c(c1)[C@]13CCCC[C@@H]1[C@H](C2)NCC3 :: 44%
CN1CC[C@@]23CCCC[C@@H]2[C@@H]1Cc1ccc(C(C)(C)O)cc13 :: inactive

Proceeding to the next compound to report its inhibition.
Give recorded inhibition with Sodium-dependent noradrenaline transporter (Homo sapiens) for the following compound: c1ccc2c(c1)C[C@@H]1NCC[C@]23CCCC[C@H]13
14%
